# maps each entry to its EC50
test-description: Non-nucleoside inhibition of NS5B polymerase S365A mutant in HCV genotype 1a by Taqman probe based RT-PCR analysis
readout-name: EC50 (µM)

molecule: CNC(=O)c1c(-c2ccc(F)cc2)oc2cc(N(C)S(C)(=O)=O)c(-c3ccc4nnn(Cc5ccccc5)c(=O)c4c3)cc12 [US9364482, 42]
readout-name: EC50
test-value: 0.335
--
molecule: CNC(=O)c1c(-c2ccc(F)cc2)oc2cc(N(C)S(C)(=O)=O)c(-c3ccc4c(n3)C(=O)N(Cc3ccc(F)cc3)CO4)cc12 [US9364482, 6]
readout-name: EC50
test-value: 0.0007
--
molecule: CNC(=O)c1c(-c2ccc(F)cc2)oc2cc(N(C)S(C)(=O)=O)c(-c3ccc4nnn(Cc5ccc(F)cn5)c(=O)c4c3)cc12 [US9364482, 48]
readout-name: EC50
test-value: 0.446
--
molecule: CNC(=O)c1c(-c2ccc(F)cc2)oc2cc(N(C)S(C)(=O)=O)c(-c3ccc4nc(COC)n(Cc5ccc(F)cc5)c(=O)c4c3)cc12 [US9364482, 53]
readout-name: EC50
test-value: 0.019

Source of measurements: BindingDB's records for doi:10.1016/j.bmcl.2020.127004
